B1: tRNA (parent)
chain: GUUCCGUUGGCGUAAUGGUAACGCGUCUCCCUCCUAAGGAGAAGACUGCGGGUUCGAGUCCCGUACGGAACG

Variants of: B1
assay.remarks: yeast fitness relative to wild type (ratio to wild type); higher = fitter; tRNA-Arg(CCU), competitive growth, 37 C, YPD
Variants at the floor of the assay were thinned out.
Listing of entries alongside the reported yeast fitness.
The answer should be written as a number, with no unit following it.

Reference set (5 entries):
U8C C46A	1.01
A65C C66A	0.808
A43C G48A A57C G68U	0.701
U3A A14U C60U C62U A70G	0.651
G9A C29U	0.914

Ask: Fill in: yeast fitness of U64C A70G is ___
Result: 0.844

Ask: Fill in: yeast fitness of G18A C24G G38C is ___
Result: 0.724
